# Lookup of reported chromatographic logP keyed by entry
Assay: logP (HPLC)
Details: HPLC
Please give the numeric answer without any surrounding text.

INSERT INTO assay_data (compound, value_measured) VALUES
  ('C[C@H](Nc1c(-c2c(F)cc(F)cc2F)c(Cl)nc2nc(S(C)(=O)=O)nn12)C(F)(F)F [Example 2a]', 2.94);

Input: Entry under review: C[C@H](Nc1c(-c2c(F)cc(F)cc2F)c(Cl)nc2nc([S+](C)[O-])nn12)C(F)(F)F (some centres unmarked) [Example 2b] . Reported chromatographic logP?
Output: 2.5

###

Assay: logP (HPLC)
Details: HPLC (gradient method)
We begin with a simple list: items and their reported chromatographic logP.
# output: bare number, no unit

INSERT INTO assay_data (compound, value_measured) VALUES
  ('CSc1nc2nc(Cl)c(-c3c(F)cc(F)cc3F)c(N[C@@H](C)C(F)(F)F)n2n1 [compound 9]', 3.58),
  ('CS(=O)(=O)c1nc2nc(Cl)c(-c3c(Cl)cccc3Cl)c(NC3CCCC3)n2n1 [compound 6]', 3.35);

# evaluate next
Input: I would be grateful if you could share the reported chromatographic logP for CSc1nc2nc(Cl)c(-c3c(Cl)cccc3Cl)c(N[C@@H](C)C(F)(F)F)n2n1 [compound 8] .
Output: 3.82
